experiment: Oral bioavailability in Beagle dog at 2 umol/kg; format: ADME, organism-based, Canis lupus familiaris; details: in vivo, at 2 µmol/kg
readout_label: bioavailability

q: Check the records and state bioavailability for "CNC(=O)c1nn(C)c2ccc(Nc3nccc(-n4cc(N[C@@H]5CCOC[C@@H]5N)cn4)n3)cc12"
a: 2%

====

experiment: Intrinsic clearance in dog hepatocytes measured per million cells; assay type: ADME, cell-based, Canis lupus familiaris, Hepatocyte; settings: read-out: CLH
readout_label: hepatocyte CLint

q: Give the measured hepatocyte CLint for "CNC(=O)c1nn(C)c2ccc(Nc3nccc(-n4cc(N[C@@H]5CCOC[C@@H]5N)cn4)n3)cc12"
a: < 1 µL/min/1e6 cells
